- target of assay: IMP-10 (Serratia marcescens, UniProt P52699, V49F)
- Sequence (P52699 19-246 V49F): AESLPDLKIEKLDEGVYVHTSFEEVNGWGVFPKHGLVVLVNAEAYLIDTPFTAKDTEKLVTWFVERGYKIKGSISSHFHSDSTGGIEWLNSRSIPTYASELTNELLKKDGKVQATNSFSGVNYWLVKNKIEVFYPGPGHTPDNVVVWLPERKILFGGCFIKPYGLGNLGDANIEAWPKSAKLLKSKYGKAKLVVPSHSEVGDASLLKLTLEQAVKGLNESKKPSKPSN
- method summary: IC50, inhibition of cephalothin hydrolysis by crude extract
measurement type: IC50 (µM)
Give the value in µM but do not write µM after it.

// sample O=C(O)c1c(F)ccc2c1OB(O)[C@@H]1C[C@H]21 , its IC50 was 73

* * *

- target of assay: IMP-1 (Serratia marcescens, UniProt P52699)
- Sequence (P52699 19-246 limits assumed): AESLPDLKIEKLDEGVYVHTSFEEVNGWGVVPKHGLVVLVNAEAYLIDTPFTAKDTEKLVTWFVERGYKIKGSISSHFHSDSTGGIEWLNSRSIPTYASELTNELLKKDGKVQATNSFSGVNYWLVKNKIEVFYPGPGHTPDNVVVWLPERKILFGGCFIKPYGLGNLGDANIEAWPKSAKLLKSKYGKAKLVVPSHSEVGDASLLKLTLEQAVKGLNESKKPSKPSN
- method summary: IC50, inhibition of cephalothin hydrolysis by crude extract
measurement type: IC50

So, O=C(O)c1c(F)ccc2c1OB(O)[C@@H]1C[C@H]21 ? Its IC50 was 2.7 µM

* * *

- target of assay: VIM-2 (Escherichia coli, UniProt Q5U7L7)
- method summary: IC50, inhibition of cephalothin hydrolysis by crude extract
measurement type: IC50 (nM)
Lab book: enter the figure in nM, no units written.

Note to self: IC50 recorded for O=C(O)c1c(F)ccc2c1OB(O)[C@@H]1C[C@H]21 was 100

* * *

- target of assay: SPM-1 (Pseudomonas aeruginosa, UniProt Q8G9Q0)
- Sequence (Q8G9Q0 entry or part of it): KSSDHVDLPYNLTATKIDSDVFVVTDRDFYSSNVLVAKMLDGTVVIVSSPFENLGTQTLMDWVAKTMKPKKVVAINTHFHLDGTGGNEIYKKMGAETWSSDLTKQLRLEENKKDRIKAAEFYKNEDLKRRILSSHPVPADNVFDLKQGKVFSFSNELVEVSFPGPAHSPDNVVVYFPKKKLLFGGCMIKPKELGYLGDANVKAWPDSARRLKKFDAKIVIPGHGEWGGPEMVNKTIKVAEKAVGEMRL
- method summary: IC50, inhibition of cephalothin hydrolysis by crude extract
measurement type: IC50

molecule O=C(O)c1c(F)ccc2c1OB(O)[C@@H]1C[C@H]21 [XER, xeruborbactam] , IC50 observed: > 1000 µM

* * *

- target of assay: IMP-1 (Serratia marcescens, UniProt P52699)
- method summary: IC50, inhibition of cephalothin hydrolysis by crude extract
- assay conditions: IMP-1; 100 μM cephalothin, pH 7.0
measurement type: IC50

For this compound ( NCCN[C@H]1CC[C@H](CC(=O)N[C@H]2Cc3cccc(C(=O)O)c3OB2O)CC1 [TAN, taniborbactam] ), measured IC50 is > 1000 µM

* * *

- target of assay: VIM-2 (Escherichia coli)
- method summary: IC50, inhibition of cephalothin hydrolysis by crude extract
- assay conditions: VIM-2; 100 μM cephalothin, pH 7.0
measurement type: pIC50
# pIC50 is unitless: minus log10 of the molar concentration; print number only

For NCCN[C@H]1CC[C@H](CC(=O)N[C@H]2Cc3cccc(C(=O)O)c3OB2O)CC1 [TAN, taniborbactam] the compound record lists pIC50 as 6.30

* * *

- target of assay: IMP-13 (Pseudomonas aeruginosa, UniProt Q7WYA8)
- Sequence (Q7WYA8 21-246): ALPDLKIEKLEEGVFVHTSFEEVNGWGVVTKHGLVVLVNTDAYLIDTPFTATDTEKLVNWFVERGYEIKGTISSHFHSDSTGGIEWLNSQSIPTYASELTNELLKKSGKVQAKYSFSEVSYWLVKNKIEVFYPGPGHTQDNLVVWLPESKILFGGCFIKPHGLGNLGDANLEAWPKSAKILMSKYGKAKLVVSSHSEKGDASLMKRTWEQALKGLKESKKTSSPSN
- method summary: IC50, inhibition of cephalothin hydrolysis by crude extract
measurement type: pIC50
pIC50 is defined as minus the log10 of a concentration measured in mol/L.

The molecule O=C(O)c1c(F)ccc2c1OB(O)[C@@H]1C[C@H]21 , when measured on IMP-13 (Pseudomonas aeruginosa, UniProt Q7WYA8), yielded pIC50 of 5.44

* * *

- target of assay: IMP-13 (Pseudomonas aeruginosa)
- method summary: IC50, inhibition of cephalothin hydrolysis by crude extract
- assay conditions: IMP-13; 100 μM cephalothin, pH 7.0
measurement type: pIC50
By convention, pIC50 is the negative base-10 log of a molar concentration.

The molecule O=C(O)[C@@H](S)[C@@H](S)C(=O)O showed pIC50 equal to 3.46

* * *

- target of assay: VIM-1 (Pseudomonas aeruginosa, UniProt A0A0F7KYQ8)
- method summary: IC50, inhibition of cephalothin hydrolysis by crude extract
- assay conditions: VIM-1; 100 μM cephalothin, pH 7.0
measurement type: pIC50
pIC50 is a log-scale quantity: -log10 of the concentration expressed in molar.

Measured on VIM-1 (Pseudomonas aeruginosa, UniProt A0A0F7KYQ8), NCCN[C@H]1CC[C@H](CC(=O)N[C@H]2Cc3cccc(C(=O)O)c3OB2O)CC1 [TAN, taniborbactam] has a documented pIC50 of 6.10

These entries and their values trace back to paper PMC12147714.
